These measurements were taken from paper PMC9990147.

# SYSTEM NAME: PCFT (proton-coupled folate transporter, SLC46A1) (Gallus gallus, UniProt F1NJ67)
# Sequence (F1NJ67 whole entry): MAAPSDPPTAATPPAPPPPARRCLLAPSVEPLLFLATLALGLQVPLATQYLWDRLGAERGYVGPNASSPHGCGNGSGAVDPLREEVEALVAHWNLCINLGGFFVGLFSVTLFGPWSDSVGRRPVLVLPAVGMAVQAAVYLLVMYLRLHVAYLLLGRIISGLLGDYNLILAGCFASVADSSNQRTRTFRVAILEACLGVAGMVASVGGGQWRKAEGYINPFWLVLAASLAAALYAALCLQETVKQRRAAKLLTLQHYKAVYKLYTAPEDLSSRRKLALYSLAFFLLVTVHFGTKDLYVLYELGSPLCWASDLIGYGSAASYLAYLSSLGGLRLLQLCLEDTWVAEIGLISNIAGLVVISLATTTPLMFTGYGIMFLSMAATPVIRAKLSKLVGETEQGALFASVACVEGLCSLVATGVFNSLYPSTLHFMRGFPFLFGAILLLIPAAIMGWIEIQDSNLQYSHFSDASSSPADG
# MEASUREMENT PROTOCOL: cryo-EM structure at […] Å
MEASURED ATTRIBUTE: pIC50
Just the number, please; pIC50 means minus log10 of the concentration in mol/L.

Req: I would be grateful if you could share the reported pIC50 for Nc1nc2[nH]cc(CCc3ccc(C(=O)N[C@@H](CCC(=O)O)C(=O)O)cc3)c2c(=O)[nH]1 [PMX, pemetrexed] .
Resp: 6.05
